study-target: T1, cyno TfR extracellular domain (analogous construct to human TfR ecd) (cynomolgus monkey, UniProt Q5RDH6 87-760 (Pongo abelii entry))
T1 construct: also called cynoTfR ecd
T1 chain: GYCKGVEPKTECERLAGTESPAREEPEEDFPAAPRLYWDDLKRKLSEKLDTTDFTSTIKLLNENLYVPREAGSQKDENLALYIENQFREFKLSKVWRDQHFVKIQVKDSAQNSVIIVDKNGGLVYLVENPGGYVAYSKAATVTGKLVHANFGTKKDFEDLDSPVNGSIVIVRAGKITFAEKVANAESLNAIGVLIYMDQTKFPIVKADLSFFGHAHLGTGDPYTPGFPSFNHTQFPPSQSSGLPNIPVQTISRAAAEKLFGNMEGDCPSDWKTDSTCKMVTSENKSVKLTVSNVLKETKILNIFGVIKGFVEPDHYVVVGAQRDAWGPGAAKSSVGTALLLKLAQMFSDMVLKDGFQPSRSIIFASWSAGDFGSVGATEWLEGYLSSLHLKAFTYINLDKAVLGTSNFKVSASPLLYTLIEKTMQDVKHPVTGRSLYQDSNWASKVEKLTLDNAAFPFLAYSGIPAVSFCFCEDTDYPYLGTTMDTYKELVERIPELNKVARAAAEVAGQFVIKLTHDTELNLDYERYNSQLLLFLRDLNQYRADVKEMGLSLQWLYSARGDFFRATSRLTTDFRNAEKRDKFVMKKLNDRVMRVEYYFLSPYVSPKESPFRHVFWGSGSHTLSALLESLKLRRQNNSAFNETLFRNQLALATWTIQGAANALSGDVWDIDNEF
experiment-notes: SPR, TfR captured by anti-His, Fab injected;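 note: single cycle kinetics with a Fab dilution series, fitted by a one-to-one Langmuir model or a steady state model, KD taken as koff over kon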
koff below 0.02 s⁻¹ gives n; koff at or above it gives y.

// below: answered binders
binder	answer-label
Hu7A4.v12.Fab (Fab, V domains shown, Fab) VH: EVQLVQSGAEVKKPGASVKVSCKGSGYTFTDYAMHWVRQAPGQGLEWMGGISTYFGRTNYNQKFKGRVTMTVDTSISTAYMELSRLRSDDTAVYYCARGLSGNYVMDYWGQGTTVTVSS VL: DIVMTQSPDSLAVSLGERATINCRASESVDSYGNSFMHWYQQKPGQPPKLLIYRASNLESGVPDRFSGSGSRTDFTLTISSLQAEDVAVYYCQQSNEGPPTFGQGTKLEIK	n
Hu15G11.v1.Fab (Fab, V domains shown, Fab) VH: EVQLVQSGAEVKKPGASVKVSCKASGYTFTSYWMHWVRQAPGQRLEWMGEINPTNGRTNYIEKFKSRVTITRDTSASTAYMELSSLRSEDTAVYYCARGTRAYHYWGQGTMVTVSS VL: DIQMTQSPSSLSASVGDRVTITCRASDNLYSNLAWYQQKPGKAPKLLLYDATNLADGVPSRFSGSGSGTDYTLTISSLQPEDFATYYCQHFWGTPLTFGQGTKVEIK	y
Mu16F6.Fab (Fab, V domains shown, Fab; also called mouse 16F6 Fab) VH: DVQLQESGPGLVKPSQSLSLTCTVTGNSITSEYAWNWIRQFPGNKLEWMGYISYSGTTSYNPSLKSRISITRDTSKNQLFLQLNSVTTEDTATYFCARYGYGNPATRYFDVWGAGTTVTVSS VL: DVQITQSPSYLTASPGETITINCRASKSISKYLAWYQEKPGKTNKLLIYSGSTLQSGIPSRFSGSGSGTDFTLTISNLEPEDFAMYYCQQHNEYPWTFGGGTKLEIK	n
Hu15G11.v5.Fab (Fab, V domains shown, Fab) VH: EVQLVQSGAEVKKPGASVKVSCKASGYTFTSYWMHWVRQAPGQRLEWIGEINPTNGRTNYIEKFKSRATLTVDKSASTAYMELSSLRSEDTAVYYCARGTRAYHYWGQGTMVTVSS VL: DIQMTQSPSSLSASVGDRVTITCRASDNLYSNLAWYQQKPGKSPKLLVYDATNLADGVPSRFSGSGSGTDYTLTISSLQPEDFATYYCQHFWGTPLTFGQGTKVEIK	y

Hi team, for Hu16F6.v4.Fab (Fab, V domains shown, Fab) VH: EVQLVESGPGLVKPSETLSLTCTVSGNSITSEYAWNWIRQPPGKGLEWIGYISYSGTTSYNPSLKSRVTISRDTSKNQLSLKLSSVTAADTAVYYCARYGYGNPATRYFDVWGQGTLVTVSS VL: DIQMTQSPSSLSASVGDRVTITCRASKSISKYLAWYQQKPGKTNKLLLYSGSTLQSGVPSRFSGSGSGTDYTLTISSLQPEDFATYYCQQHNEYPWTFGQGTKVEIK , is the recorded koff at or above 0.02 s⁻¹? n

Data origin: patent US20180057604A1
